Target System: human TAS1R2-WT/TAS1R3-F514L (Homo sapiens, UniProt Q7RTX0+Q8TE23, F514L)
Construct: expressed in transfected cells; host or cells: HEK293T stably expressing Gα16gust44
Sequence (Q8TE23 20-839): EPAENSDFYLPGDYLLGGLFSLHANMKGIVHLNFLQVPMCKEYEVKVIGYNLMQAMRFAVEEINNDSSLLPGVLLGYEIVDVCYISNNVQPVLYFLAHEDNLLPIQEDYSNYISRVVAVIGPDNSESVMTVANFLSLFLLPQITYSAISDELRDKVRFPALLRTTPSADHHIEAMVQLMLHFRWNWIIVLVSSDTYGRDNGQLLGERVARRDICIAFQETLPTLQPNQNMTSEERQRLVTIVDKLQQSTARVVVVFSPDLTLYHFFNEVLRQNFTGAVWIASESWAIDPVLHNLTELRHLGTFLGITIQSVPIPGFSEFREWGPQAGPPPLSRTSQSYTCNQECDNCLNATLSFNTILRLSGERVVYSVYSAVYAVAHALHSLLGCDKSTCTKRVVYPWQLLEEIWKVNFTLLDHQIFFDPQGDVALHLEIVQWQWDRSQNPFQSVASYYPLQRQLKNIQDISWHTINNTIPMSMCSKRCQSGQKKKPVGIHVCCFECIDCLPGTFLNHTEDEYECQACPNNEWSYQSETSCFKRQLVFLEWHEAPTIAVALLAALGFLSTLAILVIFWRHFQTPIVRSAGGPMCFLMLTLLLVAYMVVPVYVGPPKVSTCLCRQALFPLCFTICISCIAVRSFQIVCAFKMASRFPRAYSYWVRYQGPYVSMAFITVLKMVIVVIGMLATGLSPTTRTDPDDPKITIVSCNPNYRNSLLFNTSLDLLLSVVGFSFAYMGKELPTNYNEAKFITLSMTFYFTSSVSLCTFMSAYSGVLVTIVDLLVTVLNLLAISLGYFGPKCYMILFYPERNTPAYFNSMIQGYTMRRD
Sequence (Q7RTX0 21-852 F514L): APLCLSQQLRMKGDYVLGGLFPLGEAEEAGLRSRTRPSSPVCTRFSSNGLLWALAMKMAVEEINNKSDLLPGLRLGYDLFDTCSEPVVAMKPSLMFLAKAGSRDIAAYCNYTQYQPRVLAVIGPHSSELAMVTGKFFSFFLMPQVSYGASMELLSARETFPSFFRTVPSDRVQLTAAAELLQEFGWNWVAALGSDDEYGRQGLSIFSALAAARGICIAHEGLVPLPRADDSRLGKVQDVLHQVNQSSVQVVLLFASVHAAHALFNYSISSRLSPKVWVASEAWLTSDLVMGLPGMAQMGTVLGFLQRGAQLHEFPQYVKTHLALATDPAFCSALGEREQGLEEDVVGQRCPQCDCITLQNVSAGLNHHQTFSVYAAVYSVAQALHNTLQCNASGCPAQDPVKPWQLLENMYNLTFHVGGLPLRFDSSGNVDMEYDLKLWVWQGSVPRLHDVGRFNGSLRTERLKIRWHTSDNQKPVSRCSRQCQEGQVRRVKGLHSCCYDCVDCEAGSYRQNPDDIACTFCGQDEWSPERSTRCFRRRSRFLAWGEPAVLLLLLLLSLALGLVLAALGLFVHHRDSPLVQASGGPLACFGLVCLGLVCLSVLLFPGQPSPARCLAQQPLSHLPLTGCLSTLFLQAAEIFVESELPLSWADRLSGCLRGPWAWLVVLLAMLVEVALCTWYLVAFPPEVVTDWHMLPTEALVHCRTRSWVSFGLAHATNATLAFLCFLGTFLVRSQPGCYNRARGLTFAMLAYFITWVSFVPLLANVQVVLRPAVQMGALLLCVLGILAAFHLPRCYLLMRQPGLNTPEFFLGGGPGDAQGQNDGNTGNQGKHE
Assay Method Text: Calcium mobilisation assay, TAS1R2-WT with TAS1R3 variant F514L
Format: cell-based
Experimental Context: maximal signal amplitude
Property Measured: Max ΔF/F0
// return just the number, without any unit appended

Molecule	Target System	Max ΔF/F0
C=C1C[C@@]23CC[C@H]4[C@@](C)(CCC[C@@]4(C)C(=O)O[C@@H]4O[C@H](CO)[C@@H](O)[C@H](O[C@@H]5O[C@H](CO)[C@@H](O)[C@H](O)[C@H]5O)[C@H]4O[C@@H]4O[C@H](CO)[C@@H](O)[C@H](O)[C@H]4O)[C@@H]2CC[C@]1(O[C@@H]1O[C@H](CO)[C@@H](O)[C@H](O[C@@H]2O[C@H](CO)[C@@H](O)[C@H](O)[C@H]2O)[C@H]1O[C@@H]1O[C@H](CO)[C@@H](O)[C@H](O)[C@H]1O)C3 [Rebaudioside M, rebaudioside M]	human TAS1R2-WT/TAS1R3-F514L (Homo sapiens, UniProt Q7RTX0+Q8TE23, F514L)	0.64
COC(=O)[C@H](Cc1ccccc1)NC(=O)[C@H](CC(=O)O)NCCC(C)(C)C	human TAS1R2-WT/TAS1R3-F514L (Homo sapiens, UniProt Q7RTX0+Q8TE23, F514L)	0.45
C=C(C)[C@@H]1CC=C(/C=N/O)CC1	human TAS1R2-WT/TAS1R3-F514L (Homo sapiens, UniProt Q7RTX0+Q8TE23, F514L)	1.40
C[C@H](CC[C@@H](O[C@@H]1O[C@H](CO[C@@H]2O[C@H](CO)[C@@H](O)[C@H](O)[C@H]2O)[C@@H](O)[C@H](O)[C@H]1O[C@@H]1O[C@H](CO)[C@@H](O)[C@H](O)[C@H]1O)C(C)(C)O)[C@H]1CC[C@@]2(C)[C@@H]3CC=C4[C@@H](CC[C@H](O[C@@H]5O[C@H](CO[C@@H]6O[C@H](CO)[C@@H](O)[C@H](O)[C@H]6O)[C@@H](O)[C@H](O)[C@H]5O)C4(C)C)[C@]3(C)[C@H](O)C[C@]12C [Mogroside V, mogroside V]	human TAS1R2-WT/TAS1R3-F514L (Homo sapiens, UniProt Q7RTX0+Q8TE23, F514L)	0.79
CC1=CC(=O)NS(=O)(=O)O1	human TAS1R2-WT/TAS1R3-F514L (Homo sapiens, UniProt Q7RTX0+Q8TE23, F514L)	0.14

Ask | Return reported Max ΔF/F0; argument: COc1ccc(CCC(=O)c2c(O)cc(O[C@@H]3O[C@H](CO)[C@@H](O)[C@H](O)[C@H]3O[C@@H]3O[C@@H](C)[C@H](O)[C@@H](O)[C@H]3O)cc2O)cc1O [NHDC, neohesperidin dihydrochalcone]
Reply | 1.21

###

In this section we review reported R1 = Variant EC50/WT EC50 values for a set of molecules.
Target System: human TAS1R2-WT/TAS1R3-F514L (Homo sapiens, UniProt Q7RTX0+Q8TE23, F514L)
Construct: expressed in transfected cells; host or cells: HEK293T stably expressing Gα16gust44
Assay Method Text: Calcium mobilisation assay, TAS1R2-WT with TAS1R3 variant F514L
Assay type: cell-based

Molecule	R1 = Variant EC50/WT EC50
C[C@H](CC[C@@H](O[C@@H]1O[C@H](CO[C@@H]2O[C@H](CO)[C@@H](O)[C@H](O)[C@H]2O)[C@@H](O)[C@H](O)[C@H]1O[C@@H]1O[C@H](CO)[C@@H](O)[C@H](O)[C@H]1O)C(C)(C)O)[C@H]1CC[C@@]2(C)[C@@H]3CC=C4[C@@H](CC[C@H](O[C@@H]5O[C@H](CO[C@@H]6O[C@H](CO)[C@@H](O)[C@H](O)[C@H]6O)[C@@H](O)[C@H](O)[C@H]5O)C4(C)C)[C@]3(C)[C@H](O)C[C@]12C [Mogroside V, mogroside V]	1.4
COC(=O)[C@H](Cc1ccccc1)NC(=O)[C@H](CC(=O)O)NCCC(C)(C)C	1.0
COc1ccc(CCC(=O)c2c(O)cc(O[C@@H]3O[C@H](CO)[C@@H](O)[C@H](O)[C@H]3O[C@@H]3O[C@@H](C)[C@H](O)[C@@H](O)[C@H]3O)cc2O)cc1O [NHDC, neohesperidin dihydrochalcone]	0.8

Alright, here's another molecule for you.
Ask | Consider the molecule OC[C@H]1O[C@H](O[C@]2(CCl)O[C@H](CCl)[C@@H](O)[C@@H]2O)[C@H](O)[C@@H](O)[C@H]1Cl and give its measured R1 = Variant EC50/WT EC50.
Reply | 1.3

###

Target System: human TAS1R2-WT/TAS1R3-WT (Homo sapiens, UniProt Q7RTX0+Q8TE23)
Construct: expressed in transfected cells; host or cells: HEK293T-Gα16gust44
Sequence (Q8TE23 20-839): as the sequence (Q8TE23 20-839) above
Sequence (Q7RTX0 21-852): as the sequence (Q7RTX0 21-852 F514L) above, with L494F counted along it
Assay Method Text: Calcium mobilisation assay, HEK293T-Gα16gust44 cells, human sweet taste receptor WT
Assay type: cell-based
Experimental Context: TAS1R2-WT + TAS1R3-WT; read-out: EC50
With a cut-off of 20 µM, any EC50 strictly below it is called class 1; any EC50 meeting it or above is called class 0.

Compound	Class Assignment
COC(=O)[C@H](Cc1ccccc1)NC(=O)[C@H](CC(=O)O)NCCC(C)(C)C	class 1
O=S(=O)(O)NC1CCCCC1 [Cyclamate, cyclamate]	class 0
C=C(C)[C@@H]1CC=C(/C=N/O)CC1	class 1
C=C1C[C@@]23CC[C@H]4[C@@](C)(CCC[C@@]4(C)C(=O)O[C@@H]4O[C@H](CO)[C@@H](O)[C@H](O[C@@H]5O[C@H](CO)[C@@H](O)[C@H](O)[C@H]5O)[C@H]4O[C@@H]4O[C@H](CO)[C@@H](O)[C@H](O)[C@H]4O)[C@@H]2CC[C@]1(O[C@@H]1O[C@H](CO)[C@@H](O)[C@H](O[C@@H]2O[C@H](CO)[C@@H](O)[C@H](O)[C@H]2O)[C@H]1O[C@@H]1O[C@H](CO)[C@@H](O)[C@H](O)[C@H]1O)C3 [Rebaudioside M, rebaudioside M]	class 1

Now look at this one.
Ask | In the record for OC[C@H]1O[C@H](O[C@]2(CCl)O[C@H](CCl)[C@@H](O)[C@@H]2O)[C@H](O)[C@@H](O)[C@H]1Cl , is EC50 less than 20 µM?
Reply | class 0

###

Target System: human TAS1R2-C9S/TAS1R3-WT (Homo sapiens, UniProt Q7RTX0+Q8TE23)
Construct: expressed in transfected cells; host or cells: HEK293T-Gα16gust44
Sequence (Q7RTX0 21-852, one chain of several): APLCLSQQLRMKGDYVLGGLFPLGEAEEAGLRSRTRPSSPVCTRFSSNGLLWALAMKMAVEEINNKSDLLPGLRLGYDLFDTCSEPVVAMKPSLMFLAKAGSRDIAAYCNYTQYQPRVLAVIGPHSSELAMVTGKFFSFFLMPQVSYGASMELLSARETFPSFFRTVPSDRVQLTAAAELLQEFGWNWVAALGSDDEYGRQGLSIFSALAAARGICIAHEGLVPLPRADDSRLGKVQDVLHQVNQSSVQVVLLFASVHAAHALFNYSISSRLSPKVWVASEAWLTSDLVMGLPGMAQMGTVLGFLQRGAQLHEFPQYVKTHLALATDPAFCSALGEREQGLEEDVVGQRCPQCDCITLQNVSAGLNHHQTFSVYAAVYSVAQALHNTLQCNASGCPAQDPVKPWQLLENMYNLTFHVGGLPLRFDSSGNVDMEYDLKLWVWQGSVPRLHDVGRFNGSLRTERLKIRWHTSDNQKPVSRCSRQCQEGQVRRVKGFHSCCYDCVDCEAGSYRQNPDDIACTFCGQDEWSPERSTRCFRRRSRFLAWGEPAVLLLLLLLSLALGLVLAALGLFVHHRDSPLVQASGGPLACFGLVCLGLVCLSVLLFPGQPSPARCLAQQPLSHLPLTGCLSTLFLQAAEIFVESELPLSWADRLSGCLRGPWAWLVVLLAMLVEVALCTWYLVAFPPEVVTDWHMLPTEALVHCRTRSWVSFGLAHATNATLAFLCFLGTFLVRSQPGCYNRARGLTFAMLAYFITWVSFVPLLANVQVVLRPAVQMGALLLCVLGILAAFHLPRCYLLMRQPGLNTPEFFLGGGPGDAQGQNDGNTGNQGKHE
Assay Method Text: Calcium mobilisation assay, TAS1R2 variant C9S with TAS1R3-WT
Assay type: cell-based
# 1 = R1 = Variant EC50/WT EC50 below 1 (exclusive); 0 = R1 = Variant EC50/WT EC50 at/above 1

Consider the following illustrative entries.
Compound	Class Assignment
CC1=CC(=O)NS(=O)(=O)O1	1
COc1ccc(CCC(=O)c2c(O)cc(O[C@@H]3O[C@H](CO)[C@@H](O)[C@H](O)[C@H]3O[C@@H]3O[C@@H](C)[C@H](O)[C@@H](O)[C@H]3O)cc2O)cc1O [NHDC, neohesperidin dihydrochalcone]	0
C[C@H](CC[C@@H](O[C@@H]1O[C@H](CO[C@@H]2O[C@H](CO)[C@@H](O)[C@H](O)[C@H]2O)[C@@H](O)[C@H](O)[C@H]1O[C@@H]1O[C@H](CO)[C@@H](O)[C@H](O)[C@H]1O)C(C)(C)O)[C@H]1CC[C@@]2(C)[C@@H]3CC=C4[C@@H](CC[C@H](O[C@@H]5O[C@H](CO[C@@H]6O[C@H](CO)[C@@H](O)[C@H](O)[C@H]6O)[C@@H](O)[C@H](O)[C@H]5O)C4(C)C)[C@]3(C)[C@H](O)C[C@]12C [Mogroside V, mogroside V]	0

With those in mind, consider the next compound.
Ask | Answer whether the compound C=C1C[C@@]23CC[C@H]4[C@@](C)(CCC[C@@]4(C)C(=O)O[C@@H]4O[C@H](CO)[C@@H](O)[C@H](O[C@@H]5O[C@H](CO)[C@@H](O)[C@H](O)[C@H]5O)[C@H]4O[C@@H]4O[C@H](CO)[C@@H](O)[C@H](O)[C@H]4O)[C@@H]2CC[C@]1(O[C@@H]1O[C@H](CO)[C@@H](O)[C@H](O[C@@H]2O[C@H](CO)[C@@H](O)[C@H](O)[C@H]2O)[C@H]1O[C@@H]1O[C@H](CO)[C@@H](O)[C@H](O)[C@H]1O)C3 [Rebaudioside M, rebaudioside M] has R1 = Variant EC50/WT EC50 strictly less than 1
Reply | 0

###

Target System: human TAS1R2-C9S/TAS1R3-WT (Homo sapiens, UniProt Q7RTX0+Q8TE23)
Construct: expressed in transfected cells; host or cells: HEK293T-Gα16gust44
Assay Method Text: Calcium mobilisation assay, TAS1R2 variant C9S with TAS1R3-WT
Assay type: cell-based
Experimental Context: maximal signal amplitude
molecules and their reported Max ΔF/F0
Output spec: single numeric token, no unit.

Examples with their reported Max ΔF/F0 follow.
Molecule	Target System	Max ΔF/F0
COC(=O)[C@H](Cc1ccccc1)NC(=O)[C@H](CC(=O)O)NCCC(C)(C)C [Neotame]	human TAS1R2-C9S/TAS1R3-WT (Homo sapiens, UniProt Q7RTX0+Q8TE23)	0.66
CC1=CC(=O)NS(=O)(=O)O1 [Acesulfame K, acesulfame K]	human TAS1R2-C9S/TAS1R3-WT (Homo sapiens, UniProt Q7RTX0+Q8TE23)	0.32

Ask | Lab request: please report Max ΔF/F0 under test system human TAS1R2-C9S/TAS1R3-WT (Homo sapiens, UniProt Q7RTX0+Q8TE23) for C=C1C[C@@]23CC[C@H]4[C@@](C)(CCC[C@@]4(C)C(=O)O[C@@H]4O[C@H](CO)[C@@H](O)[C@H](O[C@@H]5O[C@H](CO)[C@@H](O)[C@H](O)[C@H]5O)[C@H]4O[C@@H]4O[C@H](CO)[C@@H](O)[C@H](O)[C@H]4O)[C@@H]2CC[C@]1(O[C@@H]1O[C@H](CO)[C@@H](O)[C@H](O[C@@H]2O[C@H](CO)[C@@H](O)[C@H](O)[C@H]2O)[C@H]1O[C@@H]1O[C@H](CO)[C@@H](O)[C@H](O)[C@H]1O)C3 [Rebaudioside M, rebaudioside M]
Reply | 1.18

Ask | Continue with C=C(C)[C@@H]1CC=C(/C=N/O)CC1 [Perillartine, perillartine]
Reply | 1.29

Ask | Entry OC[C@H]1O[C@H](O[C@]2(CCl)O[C@H](CCl)[C@@H](O)[C@@H]2O)[C@H](O)[C@@H](O)[C@H]1Cl [Sucralose] please
Reply | 0.72

Ask | Thanks! And COc1ccc(CCC(=O)c2c(O)cc(O[C@@H]3O[C@H](CO)[C@@H](O)[C@H](O)[C@H]3O[C@@H]3O[C@@H](C)[C@H](O)[C@@H](O)[C@H]3O)cc2O)cc1O [NHDC, neohesperidin dihydrochalcone] ?
Reply | 0.83

Ask | Same question, C[C@H](CC[C@@H](O[C@@H]1O[C@H](CO[C@@H]2O[C@H](CO)[C@@H](O)[C@H](O)[C@H]2O)[C@@H](O)[C@H](O)[C@H]1O[C@@H]1O[C@H](CO)[C@@H](O)[C@H](O)[C@H]1O)C(C)(C)O)[C@H]1CC[C@@]2(C)[C@@H]3CC=C4[C@@H](CC[C@H](O[C@@H]5O[C@H](CO[C@@H]6O[C@H](CO)[C@@H](O)[C@H](O)[C@H]6O)[C@@H](O)[C@H](O)[C@H]5O)C4(C)C)[C@]3(C)[C@H](O)C[C@]12C [Mogroside V, mogroside V] this time
Reply | 1.32
